System: resting leg of healthy male subjects
Assay: Leg haemodynamic responses to intrafemoral artery infusion of purinergic vasodilators alone and combined with tyramine
Assay type: in vivo, human
Conditions: vasodilator plus tyramine, mean±S.E.M.
Procedure: This study was performed in nine healthy male subjects from Denmark. The subjects were fully informed of any risks and discomforts associated with the experiments before giving their informed written consent to participate. […] Subjects reported to the laboratory at 8 a.m. or 1 p.m., following the ingestion of a light breakfast or lunch. […] Heart rate was determined from an electrocardiogram. All data were continuously recorded using a Powerlab system (ADInstruments, Sydney, Australia). […]
For each entry below, report its leg a-v O2 difference during combined vasodilator and tyramine infusion value.
Reply with just the number (in ml l^−1).

Supply measured leg a-v O2 difference during combined vasodilator and tyramine infusion of "Nc1ncnc2c1ncn2[C@@H]1O[C@H](COP(=O)(O)OP(=O)(O)OP(=O)(O)O)[C@@H](O)[C@H]1O" in your reply.
5.7

Note leg a-v O2 difference during combined vasodilator and tyramine infusion for the molecule shown: "Nc1ncnc2c1ncn2[C@@H]1O[C@H](COP(=O)(O)O)[C@@H](O)[C@H]1O"
15.3

Please look at this molecule and report its leg a-v O2 difference during combined vasodilator and tyramine infusion: "O=c1ccn([C@@H]2O[C@H](COP(=O)(O)OP(=O)(O)OP(=O)(O)O)[C@@H](O)[C@H]2O)c(=O)[nH]1"
7.1

Given "Nc1ncnc2c1ncn2[C@@H]1O[C@H](CO)[C@@H](O)[C@H]1O" , respond with its leg a-v O2 difference during combined vasodilator and tyramine infusion.
26.0
